# target-desc: Human MGAT-2 (Homo sapiens, UniProt Q3SYC2)
# Construct: made in house; host or cells: Sf9 cells (membrane preparation)
# Sequence (Q3SYC2 whole entry): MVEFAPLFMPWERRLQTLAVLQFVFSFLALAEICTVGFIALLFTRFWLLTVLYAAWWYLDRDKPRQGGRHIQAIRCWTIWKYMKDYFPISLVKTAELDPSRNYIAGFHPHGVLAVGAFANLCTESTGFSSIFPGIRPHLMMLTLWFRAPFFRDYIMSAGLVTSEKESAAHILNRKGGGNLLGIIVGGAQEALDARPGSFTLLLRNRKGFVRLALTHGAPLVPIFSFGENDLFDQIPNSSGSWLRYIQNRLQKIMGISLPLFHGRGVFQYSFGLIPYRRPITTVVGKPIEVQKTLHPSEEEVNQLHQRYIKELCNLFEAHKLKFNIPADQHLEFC
# procedure-details: MGAT LCMS Assay
# Type: biochemical
# condition-info: human MGAT2 membranes expressed in Sf9 cells; 100 μM 2-oleoylglycerol, 15 μM oleoyl-coenzyme A; read-out: h-MGAT LCMS IC50
parameter-measured: log10 of IC50 (log10 of the value in nM)
Log10 applied to IC50; unit prior to transform: nM.

CCn1ccc(-c2cc(-c3ccc(OCCCC(F)(F)F)cc3F)[nH]c(=O)c2C(=O)Nc2ccc(OC(F)(F)F)cc2)n1 : 1.65
CC(C)(C)c1ccc(-c2cc(-c3ccc(OCCCC(F)(F)F)cc3)[nH]c(=O)c2-c2nnn[nH]2)cc1 : 1.60
CCc1cnc(-c2cc(-c3ccc(OCCCC(F)(F)F)cc3F)[nH]c(=O)c2-c2nnn[nH]2)s1 : 0.30
CCCCCc1ccc(-c2[nH]c(=O)c(C(=O)Nc3ccc(OCC)cc3)c(-c3ccc(C)cc3)c2-c2ccccc2)cc1 : 2.29

Please supply the value of reported log10 of IC50 for the item `CCc1ccc(-c2cc(-c3ccc(OCCCC(F)(F)F)cc3)[nH]c(=O)c2C(=O)NS(=O)(=O)C2CC2)s1`
1.04

Identify log10 of IC50 associated with the molecule `CCCCCc1ccc(-c2cc(-c3ccc(C)cc3)c(C(=O)Nc3ccccc3)c(=O)[nH]2)cc1`
2.34

// fetch log10 of IC50 given entry `CCc1ccc(-c2cc(-c3ccc(OCCCC(F)(F)F)cc3)[nH]c(=O)c2C(=O)NS(C)(=O)=O)s1`
1.32

Look up and report measured log10 of IC50 for this entry: `O=C(NS(=O)(=O)C1CC1)c1c(-c2ccn(C3CCC3)n2)cc(-c2ccc(OCCCC(F)(F)F)cc2F)[nH]c1=O`
2.16

Identify the reported log10 of IC50 for the following entry. `CCc1ccc(-c2cc(-c3ccc(OCCCCCC(F)(F)F)cc3F)[nH]c(=O)c2-n2nn[nH]c2=O)s1`
1.66

###

# target-desc: Human MGAT-2 (Homo sapiens)
# Construct: made in house; host or cells: Sf9 cells (membrane preparation)
# procedure-details: MGAT LCMS Assay
# Type: biochemical
# condition-info: human MGAT2 membranes expressed in Sf9 cells; 100 μM 2-oleoylglycerol, 15 μM oleoyl-coenzyme A; read-out: h-MGAT LCMS IC50
# Experimental: Assay plates were run through a fully automated robotics system and shaken for 5 seconds every minute for a total 10 minutes. The reactions were then quenched with 120 μL of ice cold methanol containing 1 μg/mL 1,2-distearoyl-rac-glycerol as the internal standard. Plates were shaken for 2 minutes and spun down to remove protein precipitation. After the spin, samples were transferred to LC/MS compatible PCR plates. […]
Reported IC50 values for the following compounds.
The answer is to be given in nM; state only the numeric part.

Below: 3 compounds and their reported IC50.
O=c1[nH]c(-c2ccc(OCCCC(F)(F)F)cc2)cc(-c2ccn(CC3CC3)n2)c1-c1nnn[nH]1 : 153
CCn1ccc(-c2cc(-c3ccc(OCCCC(F)(F)F)cc3C(F)(F)F)[nH]c(=O)c2-c2nn[nH]n2)n1 : 51
CCc1ccc(-c2cc(-c3ccc(OCCCC(F)(F)F)cc3F)[nH]c(=O)c2-c2nn[nH]n2)s1 : 5

Return IC50 (reported value) for this compound: `O=c1[nH]c(-c2ccc(OCCCCCC(F)(F)F)cc2)cc(-c2ccc(OC(F)F)cc2)c1-n1nn[nH]c1=O`
1970

###

Some compounds, each annotated with its measured IC50.
# target-desc: Human MGAT-2 (Homo sapiens)
# Construct: made in house; host or cells: Sf9 cells (membrane preparation)
# procedure-details: MGAT LCMS Assay
# Type: biochemical
# condition-info: human MGAT2 membranes expressed in Sf9 cells; 100 μM 2-oleoylglycerol, 15 μM oleoyl-coenzyme A; read-out: h-MGAT LCMS IC50
Value and unit, in that order.

Some compounds with recorded IC50:
CCc1ccc(-c2cc(-c3ccc(OCCCC(F)(F)F)cc3F)[nH]c(=O)c2C(=O)NS(C)(=O)=O)s1 [Example 135] : 5 nM
CC1(C)CCC(c2ccc(-c3cc(-c4ccn(CC5CC5)n4)c(-c4nn[nH]n4)c(=O)[nH]3)cc2)CC1 [Example 172] : 26 nM

Supply measured IC50 of COc1ccc(NC(=O)c2c(-c3ccc(C(C)(C)C)cc3)cc(-c3ccc(OCCCC(F)(F)F)cc3)[nH]c2=O)cc1 [Example 51] in your reply.
417 nM
